Sourced from patent US7964598B2

Reported E3 + compound, % free values for the following compounds.
target: apoE3 (Homo sapiens, UniProt P02649); construct: made in house; assay: Emulsion binding assay, apoE3; settings: follow-up assay
Sequence (P02649 19-317): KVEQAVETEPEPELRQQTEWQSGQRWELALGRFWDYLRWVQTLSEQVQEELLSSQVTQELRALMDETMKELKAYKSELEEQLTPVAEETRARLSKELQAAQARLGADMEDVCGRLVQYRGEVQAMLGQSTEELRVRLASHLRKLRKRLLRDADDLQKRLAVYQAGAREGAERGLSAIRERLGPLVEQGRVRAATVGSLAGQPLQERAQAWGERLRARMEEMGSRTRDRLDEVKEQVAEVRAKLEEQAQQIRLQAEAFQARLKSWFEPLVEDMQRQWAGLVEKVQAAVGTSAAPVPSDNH
Write the value in % as a bare number.

What E3 + compound, % free value was documented for this compound, CCCCN1C(=O)/C(=C/C=C2/Oc3ccccc3N2CCCCS(=O)(=O)[O-])N(CC)C1=S.[K+] [GIND-105] ? 70

What E3 + compound, % free value was documented for this compound, O=C(N[C@H](Cc1ccc(OCc2ccccc2)cc1)C(=O)O)OCc1ccccc1 [Z-D-Tyr (BZL)-OH] ? 74

What E3 + compound, % free value was documented for this compound, O.O=C([O-])c1ccccc1-c1c2cc(I)c(=O)c(I)c-2oc2c(I)c([O-])c(I)cc12.[Na+].[Na+] [Erythrosin B] ? 80

What E3 + compound, % free value was documented for this compound, O=S(=O)([O-])c1ccc2c(c1)c(Nc1ccc(S(=O)(=O)O)cc1)cc1c2nc2ccccc2[n+]1-c1ccccc1 [GIND-25, azocarmine-G] ? 70
